The following sequences are shown together with reported binding signal values.
Target: SIX1-Q177R homeodomain (human, UniProt Q15475 108-198, Q177R)
Sequence: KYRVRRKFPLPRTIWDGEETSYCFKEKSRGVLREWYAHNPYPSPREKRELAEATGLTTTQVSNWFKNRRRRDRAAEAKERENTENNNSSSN
Assay: universal protein binding microarray; Universal all-10-mer PBM (8x60K, AMADID 030236), 300 nM GST-tagged protein, Alexa Fluor 488 anti-GST; buffer, salt, pH and temperature not stated (as in Berger); high values mean tight binding
Conditions: protein: ivt; tags: N-terminal GST; dsDNA, one strand shown
The full ranking holds about 33,000 sequences; the median of “e-score” is about -0.05, and the highest 2% start at about 0.38. Many of the other results were omitted from the sample, so the highest values are more common in it than they were.
Field: numeric (E-score). Do not append units.

Worked cases, binding signal given:
GGTGCTCA 0.25
GGGGTTCA 0.256

Task: Entry under review: AGTTAAGA . Reported binding signal?
Result: 0.155

Task: // lookup binding signal for AGTGTTCA
Result: 0.343

Task: // query binding signal value for entry TACTCCCA
Result: 0.16

----------
Target: SIX1-Q177R homeodomain (human, UniProt Q15475 108-198, Q177R)
Sequence: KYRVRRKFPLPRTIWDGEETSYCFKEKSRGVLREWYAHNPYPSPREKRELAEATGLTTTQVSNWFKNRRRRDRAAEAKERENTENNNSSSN
Assay: universal protein binding microarray; Universal all-10-mer PBM (8x60K, AMADID 030236), 300 nM GST-tagged protein, Alexa Fluor 488 anti-GST; buffer, salt, pH and temperature not stated (as in Berger); high values mean tight binding
Details: protein: ivt; tags: N-terminal GST; dsDNA, one strand shown
Whole data set: some 33,000 sequences, median “e-score” near -0.05, cut for the highest 2% near 0.38. Many of the other results were omitted from the sample, so the highest values are more common in it than they were.
// NB: equality with 0.3 E-score counts as No; only binding signal strictly below is Yes

// below: answered sequences
ACACTGTA No
AGTGTGAG Yes
ACTGTGTG Yes
GAGGGTAC Yes
ACACTTGC No

Now for a further sequence.
Task: Bench note: check whether CACACTAG shows binding signal below 0.3 E-score
Result: Yes

----------
Molecular target: SIX1-Q177R homeodomain (human, UniProt Q15475 108-198, Q177R)
Sequence: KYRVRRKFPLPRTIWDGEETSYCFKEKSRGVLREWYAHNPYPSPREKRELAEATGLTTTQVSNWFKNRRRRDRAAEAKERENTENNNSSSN
Assay: universal protein binding microarray; Universal all-10-mer PBM (8x60K, AMADID 030236), 300 nM GST-tagged protein, Alexa Fluor 488 anti-GST; buffer, salt, pH and temperature not stated (as in Berger); high values mean tight binding
Conditions: protein: ivt; tags: N-terminal GST; dsDNA, one strand shown
The full ranking holds about 33,000 sequences; the median of “e-score” is about -0.05, and the highest 2% start at about 0.38. Many of the other results were omitted from the sample, so the highest values are more common in it than they were.
# binding signal listing for each entry below
Report the value in E-score with no unit label.

CGCACCAC 0.206

Task: Query: binding signal; subject: CACCATTC
Result: 0.23

Task: Looking for the measured binding signal of ATGCACCA , can you help?
Result: 0.165

The reported measurements were obtained from paper PMC10668032.
